- Experimental Target: Stearoyl-CoA desaturase (Homo sapiens, UniProt O00767)
- Sequence (O00767 whole entry): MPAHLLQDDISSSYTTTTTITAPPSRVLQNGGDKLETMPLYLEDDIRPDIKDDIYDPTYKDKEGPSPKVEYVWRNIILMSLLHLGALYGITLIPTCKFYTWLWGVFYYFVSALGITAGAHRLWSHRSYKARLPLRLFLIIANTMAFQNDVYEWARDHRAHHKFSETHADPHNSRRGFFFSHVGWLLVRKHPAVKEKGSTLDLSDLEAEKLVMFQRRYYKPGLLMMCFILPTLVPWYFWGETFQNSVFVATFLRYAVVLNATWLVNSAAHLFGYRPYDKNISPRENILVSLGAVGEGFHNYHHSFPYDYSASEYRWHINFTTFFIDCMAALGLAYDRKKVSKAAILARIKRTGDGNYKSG
- Method Summary: Inhibition of SCD1 in OATP-deficient human HepG2 cells by whole cell assay
- Format: cell-based
Measurement Name: IC50 (µM)
I only need the number, in µM, no unit after it.

# example entries with known answers
API: value(readout= IC50, system= Stearoyl-CoA desaturase (Homo sapiens, UniProt O00767), query= O=C(O)Cn1nnc(-c2cc(OCCCOc3cc(F)ccc3Br)no2)n1 )
7.74

Moving on to Cc1nc(OCCCOc2cc(F)ccc2Br)sc1-c1nnn(CC(=O)O)n1
20.5

Next: O=C(O)Cn1nnc(-c2cnc(OCCCOc3cc(F)ccc3Br)s2)n1
3.87

Now for another entry.
Could you share what IC50 was measured for O=C(O)Cn1nnc(-c2cnc(OCCCOc3cc(OC(F)(F)F)ccc3Br)s2)n1 , tested on Stearoyl-CoA desaturase (Homo sapiens, UniProt O00767)?
0.969
